Target: T1, human PRLR (Biacore antigen) (human, UniProt P16471 25-234, limits assumed)
T1 construct: The construct injected over captured antibody is not described (a soluble form is likely); also called huPRLR
T1 sequence: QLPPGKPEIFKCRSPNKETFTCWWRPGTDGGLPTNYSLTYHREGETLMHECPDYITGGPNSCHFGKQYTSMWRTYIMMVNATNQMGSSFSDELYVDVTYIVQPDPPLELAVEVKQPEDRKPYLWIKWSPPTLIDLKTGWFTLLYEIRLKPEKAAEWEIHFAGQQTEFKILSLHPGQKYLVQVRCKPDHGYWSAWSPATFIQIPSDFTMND
Experiment: SPR Biacore
REPORTED_PROPERTY: kon

These recorded examples may help you get a feel for the data.
[
  {
    "BINDER": "Ab16 (antibody, human IgG1, kappa, V domains shown, humanized from Ab6; G1; also called Ab1 HC.1 and Ab1 LC.2) VH: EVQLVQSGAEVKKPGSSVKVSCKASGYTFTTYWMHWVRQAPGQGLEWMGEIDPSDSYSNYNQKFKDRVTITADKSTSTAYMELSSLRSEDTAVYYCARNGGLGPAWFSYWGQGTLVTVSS VL: EIVMTQSPATLSVSPGERATLSCKASQYVGTAVAWYQQKPGQAPRLLIYSASNRYTGIPARFSGSGSGTEFTLTISSLQSEDFAVYYCQQYSSYPWTFGGGTKVEIKR",
    "RESULT": "1.39e+06 M⁻¹ s⁻¹"
  },
  {
    "BINDER": "Ab14 (antibody, human IgG1, kappa, V domains shown, humanized from Ab6; G1; also called Ab1 HC.1 & Ab1 LC.1) VH: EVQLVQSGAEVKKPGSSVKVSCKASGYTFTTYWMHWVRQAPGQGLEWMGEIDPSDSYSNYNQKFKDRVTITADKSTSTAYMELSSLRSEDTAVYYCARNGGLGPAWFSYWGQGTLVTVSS VL: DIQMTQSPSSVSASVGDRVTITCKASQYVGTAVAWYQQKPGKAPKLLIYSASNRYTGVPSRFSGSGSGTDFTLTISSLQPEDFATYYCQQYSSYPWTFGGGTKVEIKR",
    "RESULT": "1.1e+06 M⁻¹ s⁻¹"
  }
]

Next up:
kon for Ab5 (antibody, V domains shown, murine monoclonal, isotype G2a; also called murine Ab5) VH: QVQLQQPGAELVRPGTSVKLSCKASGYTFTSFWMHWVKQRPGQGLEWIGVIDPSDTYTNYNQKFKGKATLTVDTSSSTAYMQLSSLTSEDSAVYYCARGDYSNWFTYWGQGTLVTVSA VL: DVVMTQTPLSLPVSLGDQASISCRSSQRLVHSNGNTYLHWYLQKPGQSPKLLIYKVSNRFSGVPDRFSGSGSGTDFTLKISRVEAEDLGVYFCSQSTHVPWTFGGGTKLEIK ?
355000 M⁻¹ s⁻¹
